- System: biotinyl-Ile-oxazolone
- experimentalProtocol: self-aminoacylation, catalytic enhancement (BIO) (fold over background); higher = more active; k-Seq, kA / k0A0; sequences stand for … in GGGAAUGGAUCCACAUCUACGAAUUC…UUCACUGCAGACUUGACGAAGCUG
Variants at the floor of the assay were thinned out.
// label = True if self-aminoacylation is not less than 1, otherwise False

>>> df
                             recordsequence  assignedclass
0  AAGUGUACUAAUAGUCGCAAG [Fam3.1 aminoacylation ribozyme variant]           True
1  AUUACCCUGGUAAUCGAGGGA [Fam2.1 aminoacylation ribozyme variant]           True
2  GUUCACCUCGGUCAUCGGGUG [Fam2.2 aminoacylation ribozyme variant]           True
3  AUUACCCUGGUCAACGAGAGA [Fam2.1 aminoacylation ribozyme variant]          False
4  ACUACCCUGGUCCUCGAGUGA [Fam2.1 aminoacylation ribozyme variant]           True
5  AUUACUCCGGUCAUCGAGUGA [Fam2.1 aminoacylation ribozyme variant]           True

Problem: State whether the measured self-aminoacylation reaches 1, counting equality as reaching it, for CCGCACUUCACGCAAUCGGUC [Fam1B.1 aminoacylation ribozyme variant]
Result: True

Problem: State whether the measured self-aminoacylation reaches 1, counting equality as reaching it, for CCUCACUUCAAGCAGUCGGUC [Fam1B.1 aminoacylation ribozyme variant]
Result: False

Values from the supplement of paper PMC9233669
